// provenance: patent US12637410B2

# experiment-notes: Microsomal assays, human liver microsomes
# condition-details: both, human, pH 7.4
observable: half-life at 0.08 µM

[[record]]
compound = "CC(Cc1ccc(F)cc1)NCCCc1ccc(CN)cc1 (stereo not drawn) [Compound 285]"
observable = "half-life at 0.08 µM"
experimental_value = "> 4 h"

[[record]]
compound = "CC(Cc1ccccc1)NCCCc1ccc(OC(F)(F)F)cc1 (stereo not drawn) [Compound 258]"
observable = "half-life at 0.08 µM"
experimental_value = "> 4 h"


Turning now to a further compound:
Query string: // Input: CC(Cc1ccncc1)NCCCc1ccc(F)cc1 (stereo not drawn) [Compound 187] . Output its half-life at 0.08 µM only.
Result string: > 4 h
